- TARGET: mPDE10A7 (Mus musculus)
- Sequence (Q8CA95 446-763 limits assumed): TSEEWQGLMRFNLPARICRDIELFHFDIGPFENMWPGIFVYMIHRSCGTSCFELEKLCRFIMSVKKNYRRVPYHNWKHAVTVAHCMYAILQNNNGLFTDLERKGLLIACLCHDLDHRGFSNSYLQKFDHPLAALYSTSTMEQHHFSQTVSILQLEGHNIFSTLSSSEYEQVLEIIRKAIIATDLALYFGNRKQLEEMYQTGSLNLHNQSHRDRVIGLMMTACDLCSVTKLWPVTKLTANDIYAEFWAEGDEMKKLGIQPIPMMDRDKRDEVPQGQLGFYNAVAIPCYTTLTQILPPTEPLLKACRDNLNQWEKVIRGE
- ASSAY PROTOCOL: mPDE10A7 enzyme inhibition (IMAP fluorescence polarization)
- Assay type: biochemical
- ASSAY CONDITIONS: fluorescein labeled cAMP or cGMP substrate, 30 min at room temperature
pIC50: −log10 of the molar value.
Response key: YES means pIC50 >= 8; NO means pIC50 < 8.

Here's what some known entries look like.
compound="COc1cc2nncc(-c3ccc(NC4CCc5cccc(OC)c5C4)nc3)c2cc1OC (stereo not drawn)" group=NO
compound="COc1cc2nncc(-c3ccc(NC4CCCc5ncccc54)nc3)c2cc1OC (stereo not drawn)" group=YES

Switching to the query record.
# check: pIC50 of COc1cc2nncc(-c3cnc(N4CCC(C(C)(C)O)CC4)c(C4CC4)c3)c2cc1OC is greater than or equal to 8 YES
